Values were extracted from PubChem BioAssay (NCI).

Tested on: HOP-92 NSCLC
MEASUREMENT_NOTES: NCI tumour cell line growth inhibition, 384-well format
ASSAY_METRIC: TGI (µM)
Field: numeric (µM). Do not append units.

Look up and report measured TGI for this entry: `C[C@@H](NC(=O)/C(C#N)=C/c1ccc([N+](=O)[O-])cc1)c1ccccc1`
12.1

Look up and report measured TGI for this entry: `COc1cc2ncnc(Nc3cccc(Cl)c3F)c2cc1OC(=O)N1CCN(C)C[C@H]1C`
28.5

Specify measured TGI for `Cc1nc(-c2nc(-c3ccc(OC(F)(F)F)cc3)no2)nn1Cc1cccc(N2CCC(S(C)(=O)=O)CC2)c1` .
46.2

Tell me TGI reported for `Cc1cc(Nc2ncc3c(n2)N(C)C(=O)N(c2cc(NC(=O)c4cccc(C(F)(F)F)c4)ccc2C)C3)n(C)n1`
0.0746
